Hello, the source for this data is ChEMBL document CHEMBL1201862, in case you need it.

Test system: NCI-H23
Assay: NCI tumour cell line growth inhibition, 48 h
Calls of active or inactive are those of the source. Cut-off read from the data, not from the text of the source: active = GI50 up to about 1.1 µM and inactive = higher.
Some compounds, each annotated with its measured GI50.

Below are worked cases with known answers.
compound=Cn1c(Sc2ccc(-c3cccnc3)n2C)ccc1-c1cccnc1 data_value="16.7 µM (inactive)"
compound="COC(=O)c1cc(C)ccc1C1CN=NC12Cc1cccc(C)c1C2=O (centres undefined)" data_value="42.7 µM (inactive)"
compound=Cc1ccc(/N=N/c2c(O)c(C(=O)O)cc3ccccc23)cc1C data_value="> 100 µM (inactive)"

Data point: CN(C)C=[N+]=[N-] ; GI50 = > 100 µM (inactive)

Data point: ClCc1nn(-c2ccccc2)c(CCl)c1CCl ; GI50 = 4.46 µM (inactive)

Data point: Clc1ccc(OCc2nnc3n2N=C(c2ccc(Br)cc2)CS3)cc1 ; GI50 = 40.9 µM (inactive)
